Reported FIC50 values for a set of compounds
Tested on: Mycobacterium tuberculosis Erdman (autoluminescent)
Assay: FIC50 (Loewe) at 50% inhibition (log2); higher = more antagonistic
Details: in vitro model: dormancy (butyrate + nitrate, low O2); time point: terminal (~4-5 doublings, model-specific)
The response must contain the number and no unit.

CC(=O)NC[C@H]1CN(c2ccc(N3CCOCC3)c(F)c2)C(=O)O1 [linezolid] + NC(=O)c1cnccn1 [pyrazinamide]	0.0853

Enquiry: I am curious: what FIC50 value has been reported for CC(=O)NC[C@H]1CN(c2ccc(N3CCOCC3)c(F)c2)C(=O)O1 [linezolid] + CO[C@H]1/C=C/O[C@@]2(C)Oc3c(C)c(O)c4c(O)c(c(/C=N/N5CCN(C6CCCC6)CC5)c(O)c4c3C2=O)NC(=O)/C(C)=C\C=C\[C@H](C)[C@H](O)[C@@H](C)[C@@H](O)[C@@H](C)[C@H](OC(C)=O)[C@@H]1C [rifapentine] ?
Return: 0.585

---

System: Mycobacterium tuberculosis Erdman (autoluminescent)
Assay: GRinf, maximum normalised growth rate inhibition (three-drug combination) (unitless (-1 to 1)); higher = less effect (negative = killing)
Conditions: in vitro model: cholesterol-high 0.2 mM; time point: constant (~7 days, model-specific)
Measured GRinf of individual entries

As a guide, the following entries are already answered.
O=[N+]([O-])c1cn2c(n1)OC[C@@H](OCc1ccc(OC(F)(F)F)cc1)C2 [pretomanid] + NC(=O)c1cnccn1 [pyrazinamide] + CO[C@H]1/C=C/O[C@@]2(C)Oc3c(C)c(O)c4c(O)c(c(/C=N/N5CCN(C6CCCC6)CC5)c(O)c4c3C2=O)NC(=O)/C(C)=C\C=C\[C@H](C)[C@H](O)[C@@H](C)[C@@H](O)[C@@H](C)[C@H](OC(C)=O)[C@@H]1C [rifapentine]	-0.211
CC(C)/N=c1\cc2n(-c3ccc(Cl)cc3)c3ccccc3nc-2cc1Nc1ccc(Cl)cc1 [clofazimine] + NNC(=O)c1ccncc1 [isoniazid] + COc1c(N2C[C@@H]3CCCN[C@@H]3C2)c(F)cc2c(=O)c(C(=O)O)cn(C3CC3)c12 [moxifloxacin]	-0.266

Lab note: next compound to report on.
Enquiry: Which GRinf reading was recorded for the compound COc1nc2ccc(Br)cc2cc1[C@@H](c1ccccc1)[C@@](O)(CCN(C)C)c1cccc2ccccc12 [bedaquiline] + CC(=O)NC[C@H]1CN(c2ccc(N3CCOCC3)c(F)c2)C(=O)O1 [linezolid] + CO[C@H]1/C=C/O[C@@]2(C)Oc3c(C)c(O)c4c(O)c(c(/C=N/N5CCN(C)CC5)c(O)c4c3C2=O)NC(=O)/C(C)=C\C=C\[C@H](C)[C@H](O)[C@@H](C)[C@@H](O)[C@@H](C)[C@H](OC(C)=O)[C@@H]1C [rifampicin] ?
Return: -0.655

---

Known total FIC50 of a selection of compounds
System: Mycobacterium tuberculosis Erdman (autoluminescent)
Assay: total FIC50 (Loewe) at 50% inhibition, three-drug combination (log2); higher = more antagonistic
Conditions: in vitro model: dormancy (butyrate + nitrate, low O2); time point: constant (~7 days, model-specific)
Answer using only a numeral; do not append any unit.

NNC(=O)c1ccncc1 [isoniazid] + CO[C@H]1/C=C/O[C@@]2(C)Oc3c(C)c(O)c4c(O)c(c(/C=N/N5CCN(C6CCCC6)CC5)c(O)c4c3C2=O)NC(=O)/C(C)=C\C=C\[C@H](C)[C@H](O)[C@@H](C)[C@@H](O)[C@@H](C)[C@H](OC(C)=O)[C@@H]1C [rifapentine] + CO[C@H]1/C=C/O[C@@]2(C)Oc3c(C)c(O)c4c(O)c(c(/C=N/N5CCN(C)CC5)c(O)c4c3C2=O)NC(=O)/C(C)=C\C=C\[C@H](C)[C@H](O)[C@@H](C)[C@@H](O)[C@@H](C)[C@H](OC(C)=O)[C@@H]1C [rifampicin]	-0.0392

Enquiry: Which total FIC50 is reported for this compound? CC(C)/N=c1\cc2n(-c3ccc(Cl)cc3)c3ccccc3nc-2cc1Nc1ccc(Cl)cc1 [clofazimine] + COc1c(N2C[C@@H]3CCCN[C@@H]3C2)c(F)cc2c(=O)c(C(=O)O)cn(C3CC3)c12 [moxifloxacin] + CO[C@H]1/C=C/O[C@@]2(C)Oc3c(C)c(O)c4c(O)c(c(/C=N/N5CCN(C6CCCC6)CC5)c(O)c4c3C2=O)NC(=O)/C(C)=C\C=C\[C@H](C)[C@H](O)[C@@H](C)[C@@H](O)[C@@H](C)[C@H](OC(C)=O)[C@@H]1C [rifapentine]
Return: 0.695

Enquiry: # total FIC50 lookup, item COc1nc2ccc(Br)cc2cc1[C@@H](c1ccccc1)[C@@](O)(CCN(C)C)c1cccc2ccccc12 [bedaquiline] + NNC(=O)c1ccncc1 [isoniazid] + NC(=O)c1cnccn1 [pyrazinamide]
Return: -0.318

---

Test system: Mycobacterium tuberculosis Erdman (autoluminescent)
Experiment: Einf, fitted maximum growth inhibition of combination (fraction); higher = stronger maximal inhibition
Conditions: in vitro model: valerate; time point: constant (~7 days, model-specific)
Label 0 if Einf falls below 0.8; label 1 in every other case.

Take a look at these entries with their results.
CC(C)/N=c1\cc2n(-c3ccc(Cl)cc3)c3ccccc3nc-2cc1Nc1ccc(Cl)cc1 [clofazimine] + CC(=O)NC[C@H]1CN(c2ccc(N3CCOCC3)c(F)c2)C(=O)O1 [linezolid]	1
CC(C)/N=c1\cc2n(-c3ccc(Cl)cc3)c3ccccc3nc-2cc1Nc1ccc(Cl)cc1 [clofazimine] + CC[C@@H](CO)NCCN[C@@H](CC)CO [ethambutol]	1
CC(C)/N=c1\cc2n(-c3ccc(Cl)cc3)c3ccccc3nc-2cc1Nc1ccc(Cl)cc1 [clofazimine] + CO[C@H]1/C=C/O[C@@]2(C)Oc3c(C)c(O)c4c(O)c(c(/C=N/N5CCN(C)CC5)c(O)c4c3C2=O)NC(=O)/C(C)=C\C=C\[C@H](C)[C@H](O)[C@@H](C)[C@@H](O)[C@@H](C)[C@H](OC(C)=O)[C@@H]1C [rifampicin]	1

Enquiry: Threshold query (Einf >= 0.8) on CC[C@@H](CO)NCCN[C@@H](CC)CO [ethambutol] + NC(=O)c1cnccn1 [pyrazinamide]
Return: 0

---

The following compounds are listed with their measured total FIC50 values.
Test system: Mycobacterium tuberculosis Erdman (autoluminescent)
Experiment: total FIC50 (Loewe) at 50% inhibition, three-drug combination (log2); higher = more antagonistic
Conditions: in vitro model: cholesterol 0.05 mM; time point: terminal (~4-5 doublings, model-specific)
The answer should be a number; do not append a unit.

CC(C)/N=c1\cc2n(-c3ccc(Cl)cc3)c3ccccc3nc-2cc1Nc1ccc(Cl)cc1 [clofazimine] + CC[C@@H](CO)NCCN[C@@H](CC)CO [ethambutol] + O=[N+]([O-])c1cn2c(n1)OC[C@@H](OCc1ccc(OC(F)(F)F)cc1)C2 [pretomanid]	2.15

Next compound, total FIC50 to be filled in.
Enquiry: Looking for the measured total FIC50 of COc1nc2ccc(Br)cc2cc1[C@@H](c1ccccc1)[C@@](O)(CCN(C)C)c1cccc2ccccc12 [bedaquiline] + NNC(=O)c1ccncc1 [isoniazid] + COc1c(N2C[C@@H]3CCCN[C@@H]3C2)c(F)cc2c(=O)c(C(=O)O)cn(C3CC3)c12 [moxifloxacin] , can you help?
Return: 0.549

---

Test system: Mycobacterium tuberculosis Erdman (autoluminescent)
Test: AUC25, normalised area under dose response up to IC25 (fraction (0-1)); higher = more potent at low dose
Details: in vitro model: valerate; time point: constant (~7 days, model-specific)
outcome_measure: AUC25
The response must contain the number and no unit.

Below are worked cases with known answers.
CC[C@@H](CO)NCCN[C@@H](CC)CO [ethambutol] + CO[C@H]1/C=C/O[C@@]2(C)Oc3c(C)c(O)c4c(O)c(c(/C=N/N5CCN(C)CC5)c(O)c4c3C2=O)NC(=O)/C(C)=C\C=C\[C@H](C)[C@H](O)[C@@H](C)[C@@H](O)[C@@H](C)[C@H](OC(C)=O)[C@@H]1C [rifampicin]	0.0519
CC[C@@H](CO)NCCN[C@@H](CC)CO [ethambutol] + NC(=O)c1cnccn1 [pyrazinamide]	0.0825

// moving on: another record for AUC25
Enquiry: I would be grateful if you could share the reported AUC25 for NNC(=O)c1ccncc1 [isoniazid] + NC(=O)c1cnccn1 [pyrazinamide] .
Return: 0.0637

---

System: Mycobacterium tuberculosis Erdman (autoluminescent)
Assay: Einf, fitted maximum growth inhibition of three-drug combination (fraction); higher = stronger maximal inhibition
Settings: in vitro model: standard 7H9 glycerol; time point: constant = terminal
outcome_measure: Einf

Enquiry: State the recorded Einf for this entry: COc1nc2ccc(Br)cc2cc1[C@@H](c1ccccc1)[C@@](O)(CCN(C)C)c1cccc2ccccc12 [bedaquiline] + CC(=O)NC[C@H]1CN(c2ccc(N3CCOCC3)c(F)c2)C(=O)O1 [linezolid] + CO[C@H]1/C=C/O[C@@]2(C)Oc3c(C)c(O)c4c(O)c(c(/C=N/N5CCN(C6CCCC6)CC5)c(O)c4c3C2=O)NC(=O)/C(C)=C\C=C\[C@H](C)[C@H](O)[C@@H](C)[C@@H](O)[C@@H](C)[C@H](OC(C)=O)[C@@H]1C [rifapentine]
Return: 0.939
